- test-target: human TRPM8 (Homo sapiens, UniProt Q7Z2W7)
- Construct: expressed in transfected cells; host or cells: Chinese hamster ovary (CHO) cells, T-REx tetracycline-inducible expression system (Invitrogen); co-transfected with pcDNA3.1 aequorin
- Sequence (Q7Z2W7 whole entry): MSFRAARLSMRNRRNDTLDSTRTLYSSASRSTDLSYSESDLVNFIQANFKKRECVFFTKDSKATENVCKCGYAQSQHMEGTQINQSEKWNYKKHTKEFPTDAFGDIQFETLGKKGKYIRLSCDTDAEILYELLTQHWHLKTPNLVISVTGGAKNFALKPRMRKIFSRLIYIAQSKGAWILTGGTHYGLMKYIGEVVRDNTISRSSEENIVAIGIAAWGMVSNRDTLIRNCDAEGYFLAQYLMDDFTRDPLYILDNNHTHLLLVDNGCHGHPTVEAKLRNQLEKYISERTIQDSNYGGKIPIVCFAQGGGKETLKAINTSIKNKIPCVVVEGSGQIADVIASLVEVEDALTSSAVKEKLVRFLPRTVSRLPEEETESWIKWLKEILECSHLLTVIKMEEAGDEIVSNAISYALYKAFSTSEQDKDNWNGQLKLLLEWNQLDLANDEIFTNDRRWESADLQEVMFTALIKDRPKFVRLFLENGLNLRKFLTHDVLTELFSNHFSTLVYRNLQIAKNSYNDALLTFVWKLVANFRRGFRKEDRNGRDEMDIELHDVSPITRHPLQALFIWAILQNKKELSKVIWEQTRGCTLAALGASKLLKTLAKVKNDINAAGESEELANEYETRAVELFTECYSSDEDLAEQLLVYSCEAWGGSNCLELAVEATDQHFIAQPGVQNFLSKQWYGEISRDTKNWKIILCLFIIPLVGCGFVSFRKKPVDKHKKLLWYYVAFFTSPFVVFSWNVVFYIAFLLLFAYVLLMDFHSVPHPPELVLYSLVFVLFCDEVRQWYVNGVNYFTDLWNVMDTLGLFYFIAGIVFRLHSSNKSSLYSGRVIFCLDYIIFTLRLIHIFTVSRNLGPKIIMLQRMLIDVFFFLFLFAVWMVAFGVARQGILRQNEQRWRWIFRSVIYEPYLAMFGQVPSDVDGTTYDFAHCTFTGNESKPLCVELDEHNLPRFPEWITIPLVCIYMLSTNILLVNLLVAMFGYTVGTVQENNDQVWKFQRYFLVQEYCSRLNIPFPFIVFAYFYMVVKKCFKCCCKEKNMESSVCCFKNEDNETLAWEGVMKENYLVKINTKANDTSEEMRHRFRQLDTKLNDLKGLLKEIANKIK
- test-description: Luminescence readout assay for measuring intracellular calcium (aequorin, CHO cells expressing human TRPM8; icilin, L-menthol or cold activation)
- Type: cell-based
- condition-context: CHO cells expressing human TRPM8, icilin activation (1 μM), aequorin luminescence; read-out: hTRPM8 IC50
Structures can show the parent of a compound that is named as a salt.
readout-type: IC50 (nM)
Give bare numbers, in nM.

Use these answered entries as a reference point.
compound	result-unit	IC50
O=C(N[C@]1(c2ccc(-c3cccc(CO)c3)cc2)CCOc2cccnc21)c1ccc(F)cc1	nM	2170
O=C(N[C@]1(c2ccc(OC(F)(F)F)cc2)CCOc2cccnc21)c1nc2ccccc2[nH]1 [Example 241, formate]	nM	769
CC(=O)Nc1cc(C(=O)N[C@]2(c3ccc(OC(F)(F)F)c(F)c3)CCOc3cccnc32)ccc1C(=O)O	nM	316
O=C(Nc1cccnc1)N[C@]1(c2ccc(C(F)(F)F)cc2)CCOc2cccnc21	nM	19

Here is the next item to consider.
query: Request the reported IC50 associated with O=C(Nc1cccnc1)NC1(c2ccc(C(F)(F)F)cc2)CCCc2cccnc21 (centres unmarked)
result: 143
